Reported values of Population Tubulin-Different-Phenotype (%) for individual entries
# System: Fibroblast
# assay.explanation: Multiplex assay against human fibroblast
# Format: toxicity, cell-based
# stated.conditions: 12 h, 1 µM, compound concentration 1 uM, replicate 1
measured.metric: Population Tubulin-Different-Phenotype (%)

molecule: CCn1c(=O)c(-c2ccc(-c3cncs3)cc2Cl)cc2cnc(Nc3ccc(N4CCN(C)CC4)cc3)nc21
measurement: 36

molecule: CN1CCC(=C2c3ccccc3CC(=O)c3sccc32)CC1.O=C(O)/C=C/C(=O)O [KETOTIFEN FUMARATE]
measurement: 37

molecule: CCN1CCN(Cc2ccc(Nc3ncc(F)c(-c4cc(F)c5nc(C)n(C(C)C)c5c4)n3)nc2)CC1.CS(=O)(=O)O
measurement: 57

molecule: CCc1cccc(CC)c1NC(=O)c1nn(C)c2c1CCc1cnc(Nc3ccc(N4CCN(C)CC4)cc3OC)nc1-2
measurement: 75

molecule: C=C1/C(=C\C=C2/CCC[C@]3(C)[C@@H]([C@H](C)/C=C/[C@H](C)C(C)C)CC[C@@H]23)C[C@@H](O)C[C@@H]1O
measurement: 14

molecule: O=C1NC(=O)C(c2cnc3ccccn23)=C1c1cn2c3c(cc(F)cc13)CN(C(=O)N1CCCCC1)CC2
measurement: 89

molecule: S=C(NCCCc1c[nH]cn1)NCCCN(Cc1ccc(Cl)c(Cl)c1)c1ccc(Br)cn1
measurement: 55

molecule: CCCS(=O)(=O)c1nc(NC2CC2)cc(-c2ccc3c(ccn3C3CC(C)(C)NC(C)(C)C3)c2)n1
measurement: 35
